Test system: Lichtheimia corymbifera
EXPERIMENTAL_PROTOCOL: Antimicrobial activity against Mycocladus corymbiferus by broth microdilution method
Format: functional
EXPERIMENTAL_ENDPOINT: MIC50 (µg/mL)
Reply numerically in µg/mL, unit not repeated.

The examples below pair each entry with its known result.
• C[C@@H]1[C@H](O)[C@@H](C)/C=C/C=C/C=C/C=C/C=C/C=C/C=C/[C@H](O[C@@H]2O[C@H](C)[C@@H](O)[C@H](N)[C@@H]2O)C[C@@H]2O[C@](O)(C[C@@H](O)C[C@@H](O)[C@H](O)CC[C@@H](O)C[C@@H](O)CC(=O)O[C@H]1C)C[C@H](O)[C@H]2C(=O)O = 0.12
• CCC(C)n1ncn(-c2ccc(N3CCN(c4ccc(OCC5COC(Cn6cncn6)(c6ccc(Cl)cc6Cl)O5)cc4)CC3)cc2)c1=O (stereo unspecified) = 1

Pending compound:
Query: May I ask what MIC50 has been recorded for CC[C@@H]([C@H](C)O)n1ncn(-c2ccc(N3CCN(c4ccc(OC[C@@H]5CO[C@@](Cn6cncn6)(c6ccc(F)cc6F)C5)cc4)CC3)cc2)c1=O ?
Response: 0.5

----------
System: Lichtheimia corymbifera
EXPERIMENTAL_PROTOCOL: Antimicrobial activity against Mycocladus corymbiferus by broth microdilution method
Format: functional
EXPERIMENTAL_ENDPOINT: MIC50

Query: Please look up its MIC50: CC[C@H](C)C[C@H](C)CCCCCCCCC(=O)N[C@H]1C[C@@H](O)[C@@H](NCCN)NC(=O)[C@@H]2[C@@H](O)CCN2C(=O)[C@H]([C@H](O)CCN)NC(=O)[C@H]([C@H](O)[C@@H](O)c2ccc(O)cc2)NC(=O)[C@@H]2C[C@@H](O)CN2C(=O)[C@H]([C@@H](C)O)NC1=O
Response: > 16 µg/mL

----------
Test system: Acremonium sp.
EXPERIMENTAL_PROTOCOL: Antimicrobial activity against Acremonium sp.by broth microdilution method
Format: functional
*1 amine or outer side, *2 acyl side, *3 side chain or, on linkers, in order; H or OH if unused. Where a SMILES comes first, the peptide text is derived from it. Bridges are numbered along the chain shown (N, C = ends). [ ]: non-standard residue; d: D form. The star is where a group is joined. pTerphenylCO(4''-OnC5H11) = CCCCCOc1ccc(-c2ccc(-c3ccc(C(=O)*)cc3)cc2)cc1; Orn(4R-OH,5R-OH) = O=C([C@H](C[C@@H](O)[C@@H](O)N[*:3])N[*:1])[*:2]; hTyr(3S-OH,4S-OH) = N[C@H](C(=O)O)[C@H](O)[C@@H](O)c1ccc(O)cc1; Pro(3S-OH,4S-Me) = C[C@H]1CN[C@H](C(=O)O)[C@H]1O; Hyp = O=C(O)[C@@H]1C[C@@H](O)CN1
A collection of compounds and their measured MIC90
Provide only the numeric value, understood in µg/mL.

Query: Quick check: MIC90 of CC[C@H](C)C[C@H](C)CCCCCCCCC(=O)N[C@H]1C[C@@H](O)[C@@H](NCCN)NC(=O)[C@@H]2[C@@H](O)CCN2C(=O)[C@H]([C@H](O)CCN)NC(=O)[C@H]([C@H](O)[C@@H](O)c2ccc(O)cc2)NC(=O)[C@@H]2C[C@@H](O)CN2C(=O)[C@H]([C@@H](C)O)NC1=O ?
Response: 1

Query: Look at this compound and give its reported MIC90. CCCCCOc1ccc(-c2ccc(-c3ccc(C(=O)N[C@H]4C[C@@H](O)[C@@H](O)NC(=O)[C@@H]5[C@@H](O)[C@@H](C)CN5C(=O)[C@H]([C@@H](C)O)NC(=O)[C@H]([C@H](O)[C@@H](O)c5ccc(O)cc5)NC(=O)[C@@H]5C[C@@H](O)CN5C(=O)[C@H]([C@@H](C)O)NC4=O)cc3)cc2)cc1 [ANIDULAFUNGIN] ({pTerphenylCO(4''-OnC5H11)}-[Orn(4R-OH,5R-OH)]T[Hyp][hTyr(3S-OH,4S-OH)]T[Pro(3S-OH,4S-Me)]; lactam 1-C)
Response: 0.03

----------
Test system: Candida orthopsilosis
EXPERIMENTAL_PROTOCOL: Antimicrobial activity against Candida orthopsilosis by broth microdilution method
Type: functional
CONDITION_SUMMARY: Lodderomyces orthopsilosis
EXPERIMENTAL_ENDPOINT: MIC90 (µg/mL)
Number only, in µg/mL; omit the unit.

Query: May I ask what MIC90 has been recorded for C[C@@H]1[C@H](O)[C@@H](C)/C=C/C=C/C=C/C=C/C=C/C=C/C=C/[C@H](O[C@@H]2O[C@H](C)[C@@H](O)[C@H](N)[C@@H]2O)C[C@@H]2O[C@](O)(C[C@@H](O)C[C@@H](O)[C@H](O)CC[C@@H](O)C[C@@H](O)CC(=O)O[C@H]1C)C[C@H](O)[C@H]2C(=O)O ?
Response: 1

----------
System: Saksenaea vasiformis
EXPERIMENTAL_PROTOCOL: Antimicrobial activity against Saksenaea vasiformis by broth microdilution method
Assay type: functional
*1 amine or outer side, *2 acyl side, *3 side chain or, on linkers, in order; H or OH if unused. Where a SMILES comes first, the peptide text is derived from it. Bridges are numbered along the chain shown (N, C = ends). [ ]: non-standard residue; d: D form. The star is where a group is joined. hTyr(3S-OH,4S-OH,3'-OSO3H) = N[C@H](C(=O)O)[C@H](O)[C@@H](O)c1ccc(O)c(OS(=O)(=O)O)c1; pTerphenylCO(4''-OnC5H11) = CCCCCOc1ccc(-c2ccc(-c3ccc(C(=O)*)cc3)cc2)cc1; Orn(4R-OH,5R-OH) = O=C([C@H](C[C@@H](O)[C@@H](O)N[*:3])N[*:1])[*:2]; hTyr(3S-OH,4S-OH) = N[C@H](C(=O)O)[C@H](O)[C@@H](O)c1ccc(O)cc1; Pro(3S-OH,4S-Me) = C[C@H]1CN[C@H](C(=O)O)[C@H]1O; X1 = CCCCCOc1ccc(-c2cc(-c3ccc(C(=O)*)cc3)no2)cc1; Gln(3R-OH) = NC(=O)C[C@@H](O)[C@H](N)C(=O)O; Hyp = O=C(O)[C@@H]1C[C@@H](O)CN1
EXPERIMENTAL_ENDPOINT: MIC90

- CC[C@@H]([C@H](C)O)n1ncn(-c2ccc(N3CCN(c4ccc(OC[C@@H]5CO[C@@](Cn6cncn6)(c6ccc(F)cc6F)C5)cc4)CC3)cc2)c1=O: > 8 µg/mL
- CC[C@H](C)C[C@H](C)CCCCCCCCC(=O)N[C@H]1C[C@@H](O)[C@@H](NCCN)NC(=O)[C@@H]2[C@@H](O)CCN2C(=O)[C@H]([C@H](O)CCN)NC(=O)[C@H]([C@H](O)[C@@H](O)c2ccc(O)cc2)NC(=O)[C@@H]2C[C@@H](O)CN2C(=O)[C@H]([C@@H](C)O)NC1=O: > 16 µg/mL
- CCC(C)n1ncn(-c2ccc(N3CCN(c4ccc(OCC5COC(Cn6cncn6)(c6ccc(Cl)cc6Cl)O5)cc4)CC3)cc2)c1=O (configuration not stated): > 8 µg/mL
- CCCCCOc1ccc(-c2ccc(-c3ccc(C(=O)N[C@H]4C[C@@H](O)[C@@H](O)NC(=O)[C@@H]5[C@@H](O)[C@@H](C)CN5C(=O)[C@H]([C@@H](C)O)NC(=O)[C@H]([C@H](O)[C@@H](O)c5ccc(O)cc5)NC(=O)[C@@H]5C[C@@H](O)CN5C(=O)[C@H]([C@@H](C)O)NC4=O)cc3)cc2)cc1 [ANIDULAFUNGIN] ({pTerphenylCO(4''-OnC5H11)}-[Orn(4R-OH,5R-OH)]T[Hyp][hTyr(3S-OH,4S-OH)]T[Pro(3S-OH,4S-Me)]; lactam 1-C): > 16 µg/mL
- C[C@@H](c1ncncc1F)[C@](O)(Cn1cncn1)c1ccc(F)cc1F: > 8 µg/mL

Query: Which MIC90 is reported for this compound? C[C@@H]1[C@H](O)[C@@H](C)/C=C/C=C/C=C/C=C/C=C/C=C/C=C/[C@H](O[C@@H]2O[C@H](C)[C@@H](O)[C@H](N)[C@@H]2O)C[C@@H]2O[C@](O)(C[C@@H](O)C[C@@H](O)[C@H](O)CC[C@@H](O)C[C@@H](O)CC(=O)O[C@H]1C)C[C@H](O)[C@H]2C(=O)O
Response: > 16 µg/mL

Query: So what's the measured MIC90 for this one? CCCCCOc1ccc(-c2cc(-c3ccc(C(=O)N[C@H]4C[C@@H](O)[C@@H](O)NC(=O)[C@@H]5[C@@H](O)[C@@H](C)CN5C(=O)[C@H]([C@H](O)CC(N)=O)NC(=O)[C@H]([C@H](O)[C@@H](O)c5ccc(O)c(OS(=O)(=O)O)c5)NC(=O)[C@@H]5C[C@@H](O)CN5C(=O)[C@H]([C@@H](C)O)NC4=O)cc3)no2)cc1 [MICAFUNGIN] (X1-[Orn(4R-OH,5R-OH)]T[Hyp][hTyr(3S-OH,4S-OH,3'-OSO3H)][Gln(3R-OH)][Pro(3S-OH,4S-Me)]; lactam 1-C)
Response: > 16 µg/mL
